MEASUREMENT NAME: melting point

COc1ccc(C(=O)Nc2ccc(Cl)cc2)cc1N: 191 to 192 °C
CC1Cc2cc3c(cc2C(C=Cc2ccc(F)cc2)=NN1)OCO3 (stereo not drawn): 170 to 174 °C
Cc1ccc(C(=O)c2cc(C(C)(C)C)c(O)c(C(C)(C)C)c2)c(Cl)n1: 116 to 117 °C

====

In this section we review reported melting point values for a set of compounds.
MEASUREMENT NAME: melting point

Cc1cc(-c2cccc(C(=O)CC(=O)Nc3cc(-c4ccc(F)cc4)ccc3NC(=O)OC(C)(C)C)c2)on1: 100 to 101 °C
Cc1cccc(NC(=O)c2ccccc2CN2C(=O)C3(COc4cc5c(cc43)CCO5)c3ccccc32)c1 (centres undefined): 229 to 231 °C
Clc1ccc(C#Cc2ccccc2)cn1: 70 to 72 °C
Cc1ccc(-n2c(N)nc3ccccc32)cc1-c1ccco1: 155 to 157 °C
Cc1noc(-c2ncn3c2CN(C)C(=O)c2ccccc2-3)n1: 257 to 260 °C
c1cncc(CCCN2CCc3[nH]c4ccccc4c3C2)c1: 223 to 225 °C
Nc1nccnc1C(=O)NCCCn1ccnc1: 118 to 120 °C
COC(=O)c1[nH]c(C)c2c1CN=C(c1ccccc1F)c1cc(Cl)ccc1-2: 228 to 231 °C
O=C(O)c1cnc2n(c1=O)CCCCC2: 117 to 119 °C
CCCCc1ncc(/C=C(\Cc2ccc(N(C)C)cc2)C(=O)O)n1Cc1ccccc1Cl: 171 to 172 °C
O=C(O)C(F)(CCC(F)(F)C(F)(F)C(F)(F)C(F)(F)F)C(F)(F)F (centres undefined): 45 to 46 °C
CCCCC1OC(=O)c2cc(NC(C)C)ccc21 (centres undefined): 72 to 74 °C
C=C1CN(S(=O)(=O)c2ccc(C)cc2)CCCN(Cc2ccccc2)CCCN(S(=O)(=O)c2ccc(C)cc2)C1: 156 to 158 °C
COc1cccc2c1CC(C(=O)NCCOc1ccc(C(=O)O)cc1)N2S(=O)(=O)c1ccc(-c2ccc(F)cc2F)cc1 (centres undefined): 206 °C
